Test system: A8063 enzyme
Assay: Effect of metal ions on enzyme activity
Type: biochemical, Streptomyces sp. A8063
Conditions: metalic salt 1.0 mM
quantity kind: Relative activity (%)

* [Cl][Mn][Cl] [MnCl2] | 105.7
* [Cl-].[Cl-].[Co+2] [CoCl2] | 98.0
* [Cl-].[Cl-].[Zn+2] [ZnCl2] | 110.7
* [Cl-].[Cl-].[Mg+2] [MgCl2] | 103.4
* [Ca+2].[Cl-].[Cl-] [CaCl2] | 103.0
* [Cl][Cu][Cl] [CuCl2] | 62.1
* [Cl][Ni][Cl] [NiCl2] | 102.3
* [Cl][Fe]([Cl])[Cl] [FeCl3] | 103.0
* [Ba+2].[Cl-].[Cl-] [BaCl2] | 103.7

----------
Items are presented alongside their recorded Relative activity (%).
Test system: A7700 enzyme
Assay: Effect of metal ions on enzyme activity
Assay type: biochemical, Streptomyces sp. A7700
Conditions: metalic salt 1.0 mM
quantity kind: Relative activity (%)

• [Cl][Cu][Cl] = 50.3
• [Cl][Mn][Cl] = 108.6
• [Ba+2].[Cl-].[Cl-] = 102.5
• [Ca+2].[Cl-].[Cl-] = 98.8
• [Cl-].[Cl-].[Mg+2] = 102.5
• [Cl-].[Cl-].[Co+2] = 99.4
• [Cl-].[Cl-].[Zn+2] = 106.1
• [Cl][Ni][Cl] = 101.8
• [Cl][Fe]([Cl])[Cl] = 109.2

Data credit: patent US4605615A
